Hello, the source for this data is ChEMBL document CHEMBL4392859, in case you need it.

- Test system: HL-60
- method-description: Antiproliferative activity against human HL60 cells
- Type: functional, cell-based
- experimental-parameters: Homo sapiens, HL-60; read-out: IC50
pIC50: −log10 of the molar value.
This listing pairs compounds with measured pIC50.

compound: Nc1ncnn2c([C@@H]3O[C@H](CO)[C@H](O)[C@H]3O)ccc12
pIC50: 5.72
--
compound: CC(=O)O[C@@]12CO[C@@H]1C[C@H](O)[C@@]1(C)C(=O)[C@H](O)C3=C(C)[C@@H](OC(=O)[C@H](O)[C@@H](NC(=O)OC(C)(C)C)c4ccccc4)C[C@@](O)([C@@H](OC(=O)c4ccccc4)[C@H]21)C3(C)C [DOCETAXEL ANHYDROUS]
pIC50: 7.33
--
compound: CN[C@@H]1C[C@H]2O[C@@](C)([C@@H]1OC)n1c3ccccc3c3c4c(c5c6ccccc6n2c5c31)C(=O)NC4
pIC50: 7.72

* * *

- System: CAPAN-1
- method-description: Antiproliferative activity against human Capan1 cells
- Format: functional, cell-based
- experimental-parameters: Homo sapiens, CAPAN-1; read-out: IC50
pIC50: −log10 of the molar value.
reported-property: pIC50

molecule: Nc1ncnn2c([C@@H]3O[C@H](CO)[C@H](O)[C@H]3O)ccc12
reported-property: pIC50
recorded-measurement: 5.57

molecule: CC(=O)O[C@@]12CO[C@@H]1C[C@H](O)[C@@]1(C)C(=O)[C@H](O)C3=C(C)[C@@H](OC(=O)[C@H](O)[C@@H](NC(=O)OC(C)(C)C)c4ccccc4)C[C@@](O)([C@@H](OC(=O)c4ccccc4)[C@H]21)C3(C)C [DOCETAXEL ANHYDROUS]
reported-property: pIC50
recorded-measurement: 7.72

molecule: CN[C@@H]1C[C@H]2O[C@@](C)([C@@H]1OC)n1c3ccccc3c3c4c(c5c6ccccc6n2c5c31)C(=O)NC4
reported-property: pIC50
recorded-measurement: 7.32
